target.of.assay: UniProt:P0DTD1
method: biochemical
experimental.conditions: dose-dependent study, 0.78125 uM, individual values; read-out: % activity
Numbered stars: 1 amine (or outer) side, 2 acyl side, 3 side chain; on linkers, the order of the positions; unused ones are H or OH. Bridge positions count the residues as written; N and C are the ends. Square brackets hold non-standard residues; d marks the D form. Peptide text beside a SMILES is read from it. * marks the point of attachment. hTyr(3S-OH,4S-OH,3'-OSO3H) = N[C@H](C(=O)O)[C@H](O)[C@@H](O)c1ccc(O)c(OS(=O)(=O)O)c1; Orn(4R-OH,5R-OH) = O=C([C@H](C[C@@H](O)[C@@H](O)N[*:3])N[*:1])[*:2]; Pro(3S-OH,4S-Me) = C[C@H]1CN[C@H](C(=O)O)[C@H]1O; X1 = CCCCCOc1ccc(-c2cc(-c3ccc(C(=O)*)cc3)no2)cc1; Gln(3R-OH) = NC(=O)C[C@@H](O)[C@H](N)C(=O)O; Hyp = O=C(O)[C@@H]1C[C@@H](O)CN1
measured.metric: activity at 0.78125 µM (%)

compound="CCCCCOc1ccc(-c2cc(-c3ccc(C(=O)N[C@H]4C[C@@H](O)[C@@H](O)NC(=O)[C@@H]5[C@@H](O)[C@@H](C)CN5C(=O)[C@H]([C@H](O)CC(N)=O)NC(=O)[C@H]([C@H](O)[C@@H](O)c5ccc(O)c(OS(=O)(=O)O)c5)NC(=O)[C@@H]5C[C@@H](O)CN5C(=O)[C@H]([C@@H](C)O)NC4=O)cc3)no2)cc1 [Micafungin] (X1-[Orn(4R-OH,5R-OH)]T[Hyp][hTyr(3S-OH,4S-OH,3'-OSO3H)][Gln(3R-OH)][Pro(3S-OH,4S-Me)]; lactam 1-C)" target_of_assay=UniProt:P0DTD1 reported_measurement=101
compound=Cc1cnc(C(=O)N[C@H]2CCCCC/C=C\[C@@H]3C[C@@]3(C(=O)NS(=O)(=O)C3CC3)NC(=O)[C@@H]3C[C@@H](Oc4nc5ccccc5c5ccccc45)CN3C2=O)cn1 target_of_assay=UniProt:P0DTD1 reported_measurement=108
compound="CC(C)(C)NC(=O)N[C@H](C(=O)N1C[C@H]2[C@@H]([C@H]1C(=O)NC(CC1CCC1)C(=O)C(N)=O)C2(C)C)C(C)(C)C (stereo partly shown)" target_of_assay=UniProt:P0DTD1 reported_measurement=71
compound=CCC[C@@]1(CCc2ccccc2)CC(O)=C([C@H](CC)c2cccc(NS(=O)(=O)c3ccc(C(F)(F)F)cn3)c2)C(=O)O1 target_of_assay=UniProt:P0DTD1 reported_measurement=109

###

target.of.assay: SARS-CoV-2 3CLpro enzyme (Severe acute respiratory syndrome coronavirus 2, UniProt P0DTD1)
method: biochemical
experimental.conditions: 50 µM drug, DMSO treated control = 100%, mean of 3 values, data of Figs. 2-4
API: label(entry) gives Criterion met if the entry's percent enzymatic activity, AVG is strictly smaller than 80%; on equality or larger values it gives Criterion not met.

compound="CCC(CC)COC(=O)[C@H](C)N[P@](=O)(OC[C@H]1O[C@@](C#N)(c2ccc3c(N)ncnn23)[C@H](O)[C@@H]1O)Oc1ccccc1 [Remdesivir]" class_name="Criterion met"
compound="Cc1cc(CCCOc2c(C)cc(-c3noc(C(F)(F)F)n3)cc2C)on1 [Pleconaril]" class_name="Criterion not met"
compound="CCN(CC)CCCC(C)Nc1ccnc2cc(Cl)ccc12 (stereo not drawn) [Chloroquine]" class_name="Criterion not met"
compound="CO[C@@H]1[C@H](OC(=O)/C=C/C=C/C=C/C=C/C(=O)O)CC[C@]2(CO2)[C@H]1[C@@]1(C)O[C@@H]1CC=C(C)C [Fumagillin]" class_name="Criterion met"
compound="CC(C)c1c(C(=O)Nc2ccccc2)c(-c2ccccc2)c(-c2ccc(F)cc2)n1CC[C@@H](O)C[C@@H](O)CC(=O)O [Atrovastatin]" class_name="Criterion not met"
compound="COC(=O)N[C@H](C(=O)N1CCC[C@H]1c1nc2cc([C@H]3CC[C@H](c4cc5nc([C@@H]6CCCN6C(=O)[C@@H](NC(=O)OC)[C@@H](C)OC)[nH]c5cc4F)N3c3cc(F)c(N4CCC(c5ccc(F)cc5)CC4)c(F)c3)c(F)cc2[nH]1)[C@@H](C)OC [Pibrentasvir]" class_name="Criterion met"
compound="COc1cnc(-n2cnc(C)n2)c2[nH]cc(C(=O)C(=O)N3CCN(C(=O)c4ccccc4)CC3)c12 [Temsavir]" class_name="Criterion not met"
compound="CCOC(=O)C1=C[C@@H](OC(CC)CC)[C@H](NC(C)=O)[C@@H](N)C1 [Oseltamvir Phosphate]" class_name="Criterion not met"
compound="COC(=O)N[C@H](C(=O)N[C@@H](Cc1ccccc1)[C@@H](O)CN(Cc1ccc(-c2ccccn2)cc1)NC(=O)[C@@H](NC(=O)OC)C(C)(C)C)C(C)(C)C [Atazanavir]" class_name="Criterion not met"
compound="NC[C@H]1O[C@H](O[C@H]2[C@H](O[C@@H]3O[C@H](CO)[C@@H](O)[C@H]3O)[C@@H](O)[C@H](N)C[C@@H]2N)[C@H](N)[C@@H](O)[C@@H]1O [Ribostamycin]" class_name="Criterion not met"
compound="CC(C)CN(C[C@@H](O)[C@H](Cc1ccccc1)NC(=O)O[C@H]1CO[C@H]2OCC[C@H]21)S(=O)(=O)c1ccc(N)cc1 [Darunavir]" class_name="Criterion not met"
